# Target Or System: Dihydrofolate reductase (Rattus norvegicus, UniProt Q920D2)
# Sequence (Q920D2 whole entry): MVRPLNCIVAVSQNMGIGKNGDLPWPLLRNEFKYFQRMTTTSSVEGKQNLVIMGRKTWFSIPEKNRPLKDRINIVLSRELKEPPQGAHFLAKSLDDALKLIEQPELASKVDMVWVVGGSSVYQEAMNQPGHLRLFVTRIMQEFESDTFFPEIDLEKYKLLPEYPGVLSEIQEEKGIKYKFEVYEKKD
# Run Description: Inhibitory activity against purified dihydrofolate reductase from rat
Labelling field: enter Met if recorded IC50 is less than 70 nM. Enter Not met if it equals or exceeds that cut-off.

- COc1cc(CNCC2CCc3nc(N)nc(N)c3C2)cc(OC)c1OC (stereo not drawn): Not met
- Nc1nc(N)c2c(n1)CCC(CNc1ccc(Cl)c(Cl)c1)C2 (stereo not drawn): Not met
- C#CCN(CC1CCc2nc(N)nc(N)c2C1)c1cc(OC)c(OC)c(OC)c1 (stereo not drawn): Not met

In: is_below(IC50, 70 nM) for CN(CC1CCc2nc(N)nc(N)c2C1)c1ccc(Cl)c(Cl)c1 (stereo not drawn) ?
Out: Met

In: is_below(IC50, 70 nM) for COc1ccc(OC)c(N(C)CC2CCc3nc(N)nc(N)c3C2)c1 (stereo not drawn) ?
Out: Not met

In: is_below(IC50, 70 nM) for Nc1nc(N)c2c(n1)CCC(CNc1cccc(Br)c1)C2 (stereo not drawn) ?
Out: Not met

In: is_below(IC50, 70 nM) for COc1cc(N(C)CC2CCc3nc(N)nc(N)c3C2)cc(OC)c1OC (stereo not drawn) ?
Out: Met
